System: β-catenin/Tcf-4
Test: cells
Assay type: cell-based
Conditions: Homo sapiens, SW480, 24 h, Tcf 33.13 cells derived from SW480; 24 hours of incubation with compound; ratio Firefly/Renilla luciferase
Hi! Could you tag entries with IC50 below 2000 nM as Criterion met, and those at or above as Criterion not met? Much appreciated.

{"compound": "Cc1ccc2c(NCc3ccc(NC(=O)C4CCN(Cc5ccccc5)CC4)cc3)nc(N3CCCC3)nc2c1 [Example 133]", "assigned_category": "Criterion met"}
{"compound": "Cc1c(F)ccc2c(NCc3ccc(NC(=O)c4ccc(Cl)nc4)cc3)nc(N(C)C)nc12 [Example 64]", "assigned_category": "Criterion not met"}
{"compound": "Cc1ccc2c(NCc3ccc(NC(=O)C4CCN(Cc5ccccc5)CC4)cc3)nc(N(C)CCc3ccccn3)nc2c1 [Example 145]", "assigned_category": "Criterion met"}
{"compound": "CN(C)c1nc(NCc2ccc(NC(=O)c3ccc(Cl)nc3)cc2)c2cc(I)ccc2n1 [Example 72]", "assigned_category": "Criterion met"}
{"compound": "Cc1ccc2c(NCc3ccc(NC(=O)c4ccc(F)cc4)cc3)nc(N3CCN(c4ccccc4)CC3)nc2c1 [Example 212]", "assigned_category": "Criterion not met"}
{"compound": "O=C(Nc1ccc(CNc2nc(N3CCC3)nc3ccccc23)cc1)c1ccc(F)cc1 [Example 114]", "assigned_category": "Criterion met"}
{"compound": "CNc1nc(NCc2ccc(NC(=O)c3ccc(F)cc3Cl)cc2)c2cc(C)ccc2n1 [Example 28]", "assigned_category": "Criterion met"}

* * *

Test system: β-catenin/Tcf-4
Experiment: cells
Type: cell-based
Settings: Homo sapiens, SW480, 24 h, Tcf 33.13 cells derived from SW480; 24 hours of incubation with compound; ratio Firefly/Renilla luciferase
Hi! Could you tag entries with IC50 below 500 nM as Met, and those at or above as Not met? Much appreciated.

{"molecule": "CNc1nc(NCc2ccc(NC(=O)c3ccc(C(F)(F)F)cc3)cc2)c2cc(C)ccc2n1 [Example 27]", "assigned_category": "Met"}
{"molecule": "CN(C)c1nc(NCc2ccc(NC(=O)c3ccc(F)cc3)cc2)c2ccc(-c3ccc(C=O)cc3)cc2n1 [Example 99]", "assigned_category": "Not met"}
{"molecule": "Cc1ccc2nc(N3CCN[C@H](C)C3)nc(NCc3ccc(NC(=O)C4CCN(Cc5ccccc5)CC4)cc3)c2c1 [Example 85]", "assigned_category": "Not met"}
{"molecule": "CNc1nc(NCc2ccc(NC(=O)c3cc(F)cc(F)c3)cc2)c2cc(C)ccc2n1 [Example 41]", "assigned_category": "Not met"}
{"molecule": "Cc1ccc2c(NCc3ccc(NC(=O)c4ccc(Cl)nc4)cc3)nc(N(C)C)nc2c1 [Example 242]", "assigned_category": "Met"}
{"molecule": "C=Cc1ccc2c(NCc3ccc(NC(=O)C4CCN(Cc5ccccc5)CC4)cc3)nc(N(C)C)nc2c1 [Example 150]", "assigned_category": "Met"}
{"molecule": "Cc1ccc2nc(N3CCCC3)nc(NCc3ccc(NC(=O)c4ccc(F)cc4)cc3)c2c1 [Example 44]", "assigned_category": "Not met"}
{"molecule": "CN(C)c1nc(NCc2ccc(NC(=O)c3ccc(F)cc3)cc2)c2ccc(-c3cccnc3Cl)cc2n1 [Example 100]", "assigned_category": "Not met"}
